Provide the recorded ka for the entries that follow.
- Tested on: Macaca fascicularis PRLR (mfPRLR.mmh; SEQ ID NO:403)
- Sequence (as listed by the source): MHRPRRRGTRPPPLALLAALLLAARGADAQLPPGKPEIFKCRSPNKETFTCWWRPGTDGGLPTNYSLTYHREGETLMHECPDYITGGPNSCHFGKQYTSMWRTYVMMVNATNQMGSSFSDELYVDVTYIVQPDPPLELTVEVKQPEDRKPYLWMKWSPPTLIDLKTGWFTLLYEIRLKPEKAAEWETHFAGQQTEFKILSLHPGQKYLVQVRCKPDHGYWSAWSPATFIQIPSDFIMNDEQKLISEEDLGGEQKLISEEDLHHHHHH
- measurement protocol: Surface plasmon resonance (Biacore T200), antibody-capture format
- Format: binding
- reported conditions: 37° C., analyte mfPRLR.mmh
Answer by giving the amount and then stating its unit.

IN: Using the record for H1H6782P: fully human anti-PRLR antibody, non-blocking; HCVR/LCVR SEQ ID NOs 66/74 (antibody, V domains shown) VH: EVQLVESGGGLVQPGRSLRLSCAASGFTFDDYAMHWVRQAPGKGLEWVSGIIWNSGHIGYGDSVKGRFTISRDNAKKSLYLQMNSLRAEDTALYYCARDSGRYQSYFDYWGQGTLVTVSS VL: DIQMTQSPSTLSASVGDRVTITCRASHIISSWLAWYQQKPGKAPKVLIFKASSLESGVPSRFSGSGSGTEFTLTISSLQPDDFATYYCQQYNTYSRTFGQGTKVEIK , report its ka.
OUT: 385000 M/s

IN: Using the record for H1H6976N: anti-PRLR antibody, human IgG1 Fc form of H2M6976N of Table 1; HCVR/LCVR SEQ ID NOs 386/394 (antibody, V domains shown, human IgG1 Fc) VH: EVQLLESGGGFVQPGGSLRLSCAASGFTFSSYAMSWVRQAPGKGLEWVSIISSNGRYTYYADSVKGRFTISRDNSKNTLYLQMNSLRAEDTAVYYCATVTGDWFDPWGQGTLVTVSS VL: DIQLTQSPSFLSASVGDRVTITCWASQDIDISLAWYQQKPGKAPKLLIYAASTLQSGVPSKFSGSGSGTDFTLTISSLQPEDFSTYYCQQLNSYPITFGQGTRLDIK , report its ka.
OUT: 603000 M/s
